Assay: NCI Yeast Anticancer Drug Screen. Data for the rad50 strain (AID 155);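 note: 0% = growth of vehicle-only cultures of the same strain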
Conditions: S. cerevisiae rad50 strain growth inhibition; at 5.0 µM (retest, dose inferred, filed as 0.5); stronger effect = higher value
Description: Growth inhibition of yeast strains with defined genetic alterations is measured as a screen for potential anti-cancer activity. Selected strains with alterations in DNA damage repair or cell cycle control were exposed to compounds and growth inhibition was measured relative to vehicle treated controls. The strain used in this assay is rad50
This is part of a sample that, as a whole, favours compounds with a hit. Of some 79,000 tested, about 15% had one in any assay. Calls of active or inactive are those of the source. Cut-off read from the data, not from the text of the source: active = growth inhibition above about 70%; inactive = the rest.
The entries below are paired with their reported growth inhibition.

compound: Cc1noc(-c2ccc([N+](=O)[O-])o2)n1
growth inhibition: 6% (inactive)
--
compound: Nc1ccc2c(n1)NCC/C2=N\Nc1ccccc1
growth inhibition: 1% (inactive)
--
compound: O=C1c2cccc(O)c2C(=O)c2c(O)cccc21
growth inhibition: 67% (inactive)
--
compound: CN(CCN1C(=O)c2cccc3cccc(c23)C1=O)CCN1C(=O)c2cccc3cccc(c23)C1=O
growth inhibition: 97% (active)
--
compound: C[N+]1(Cc2ccc(Cl)c(Cl)c2)CCCC1C1CCCN(Cc2ccc(Cl)c(Cl)c2)C1 (stereo not drawn)
growth inhibition: -4% (inactive)
--
compound: NNc1c2ccccc2nc2ccccc12
growth inhibition: 9% (inactive)
--
compound: Cc1ccc(C23C=CC(c4ccccc4)(C2)C2C(=O)OC(=O)C23)cc1 (stereo not drawn)
growth inhibition: 86% (active)
--
compound: O=C(NO)c1cccnc1
growth inhibition: 2% (inactive)
